biological target: full-length beta-Catenin (Uniprot ID P35222) (Homo sapiens (Human)) (UniProt P35222); assay: fluorescence polarization competition against 5FAM TCF4 10-53 probe
Sequence (P35222 whole entry): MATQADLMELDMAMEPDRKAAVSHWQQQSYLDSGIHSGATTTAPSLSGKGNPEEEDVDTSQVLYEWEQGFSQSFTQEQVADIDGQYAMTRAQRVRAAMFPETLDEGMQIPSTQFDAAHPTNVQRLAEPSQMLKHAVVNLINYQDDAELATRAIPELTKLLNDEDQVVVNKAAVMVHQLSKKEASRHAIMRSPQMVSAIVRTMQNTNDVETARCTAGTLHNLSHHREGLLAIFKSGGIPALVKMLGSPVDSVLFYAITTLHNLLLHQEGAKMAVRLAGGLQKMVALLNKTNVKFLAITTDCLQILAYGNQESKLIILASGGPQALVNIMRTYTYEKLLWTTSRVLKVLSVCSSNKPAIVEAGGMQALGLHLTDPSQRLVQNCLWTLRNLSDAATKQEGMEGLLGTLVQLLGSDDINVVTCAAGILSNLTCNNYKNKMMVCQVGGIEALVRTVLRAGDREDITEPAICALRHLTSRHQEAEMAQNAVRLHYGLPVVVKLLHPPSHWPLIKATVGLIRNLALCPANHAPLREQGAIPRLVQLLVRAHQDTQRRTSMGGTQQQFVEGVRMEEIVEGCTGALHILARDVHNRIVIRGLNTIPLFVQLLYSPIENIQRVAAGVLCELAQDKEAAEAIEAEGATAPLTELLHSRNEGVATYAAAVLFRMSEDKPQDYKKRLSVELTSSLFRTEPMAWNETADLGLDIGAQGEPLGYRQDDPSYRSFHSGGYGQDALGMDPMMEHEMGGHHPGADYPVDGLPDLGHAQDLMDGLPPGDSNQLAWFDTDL
Starred links: 1 amine or outer side, 2 acyl side, 3 side chain; linkers in the order of their positions; H or OH if unused. Positions of bridges follow the written chain, without caps; N, C: chain ends. Non-standard residues stand in square brackets, D forms with d. Primed or numbered codes have the meaning given here. *: point of attachment. PyrS2 = (S)-3-amino-1-((pent-4-en-1-yloxy)carbonyl)pyrrolidine-3-carboxylic acid, C=CCCCOC(=O)N1CC[C@@](N[*:1])(C(=O)[*:2])C1; B5(3) = 2,2-bis(4-pentenyl)glycine (stitching residue), C=CCCCC(CCCC=C)(N[*:1])C(=O)[*:2]; 4pentenyl = N-terminal pent-4-enoic acid (acyl cap), C=CCCC(=O)*; 5hexenyl = N-terminal hex-5-enoic acid (acyl cap), C=CCCCC(=O)*; 3butenyl = N-terminal but-3-enoic acid (acyl cap), C=CCC(=O)*; Phe(3-COOH) = N[C@@H](Cc1cccc(C(=O)O)c1)C(=O)O; Bta = N[C@@H](Cc1csc2ccccc12)C(=O)O; 3Thi = N[C@@H](Cc1ccsc1)C(=O)O
measured-parameter: IC50 (nM)
Just the number in nM, nothing appended.

Known results for binders:
• 5hexenyl-XD[B5(3)]ADDAAF[PyrS2]L[3Thi][Bta]Q-NH2 (staple 3-10; staple (positions not given here); not fully specified (residue 1, bridges); printed as 5hexenyl-MePro-Asp-B5-Ala-Asp-Asp-Ala-Ala-Phe-PyrS2-Leu-3Thi-BztA-Gln-NH2; also: -CH=CH- in each staple reduced to -CH2-CH2-) [I-2600] = 923
• 4pentenyl-XD[B5(3)]AD[Phe(3-COOH)]AAF[PyrS2]L[3Thi][Bta]Q-NH2 (staple 3-10; staple (positions not given here); not fully specified (residue 1, bridges); printed as 4pentenyl-MePro-Asp-B5-Ala-Asp-3COOHF-Ala-Ala-Phe-PyrS2-Leu-3Thi-BztA-Gln-NH2) [I-2603] = 767

Query: What value of IC50 has been reported for the following binder? 3butenyl-XD[B5(3)]ADDAAF[PyrS2]L[3Thi][Bta]Q-NH2 (staple 3-10; staple (positions not given here); not fully specified (residue 1, bridges); printed as 3butenyl-MePro-Asp-B5-Ala-Asp-Asp-Ala-Ala-Phe-PyrS2-Leu-3Thi-BztA-Gln-NH2; also: -CH=CH- in each staple reduced to -CH2-CH2-) [I-2608]
Response: 251
